So I've got a bunch of compounds here, and I need their GI50 values.
System: Malme-3M
method.summary: NCI tumour cell line growth inhibition, 48 h
Activity calls are given as the source filed them. Rule as the data show it: active = GI50 up to about 1.1 µM and inactive = higher.

response.value for CN1C(c2ccccc2)CC(=NO)CC1c1ccccc1 (stereo not drawn) (field: GI50) = 34.8 µM (inactive)

response.value for COc1cccc(O)c1-c1cc(=O)c2c(O)c(OC)c(OC)c(OC)c2o1 [SKULLCAPFLAVONE II] (field: GI50) = 36.4 µM (inactive)

response.value for c1csc(-c2nn3c(C45CC6CC(CC(C6)C4)C5)nnc3s2)c1 (field: GI50) = > 100 µM (inactive)

response.value for CC1C2CC(C/C2=N/O)C1(C)C (stereo not drawn) (field: GI50) = > 100 µM (inactive)

response.value for CCCCN(CCCC)CC(O)c1cc(-c2ccc(C(F)(F)F)cc2)nc(-c2ccc(C(F)(F)F)cc2)c1 (stereo not drawn) (field: GI50) = 44 µM (inactive)

response.value for NCP(=O)(O)OCC(=O)O (field: GI50) = > 100 µM (inactive)

response.value for CC1C=CC(C(N)C(=O)O)O1 (stereo not drawn) (field: GI50) = > 100 µM (inactive)

response.value for CNc1ncnc(Sc2nc(N)nc3[nH]cnc23)c1[N+](=O)[O-] (field: GI50) = 1.46 µM (inactive)

* * *

Test system: CCRF-CEM
method.summary: NCI tumour cell line growth inhibition, 48 h
The source made the active and inactive calls. No stated cut-off is given here; in the data, active = GI50 up to about 1.1 µM and inactive = higher.
Output constraint: value belongs to TRUE = active, FALSE = inactive

**Query** Which outcome was entered for the compound COc1cc(/N=N/c2cccc(S(N)(=O)=O)c2)c2ccccc2c1N in this test?
**Result** FALSE

**Query** Which outcome was entered for the compound Cc1n(CC(C)C)c2c([n+]1C)C(=O)c1ccccc1C2=O in this test?
**Result** TRUE

**Query** Which outcome was entered for the compound CCOC(=O)CSc1nc(-c2ccc(OC)cc2)c(C#N)c(=O)[nH]1 in this test?
**Result** FALSE

**Query** Which outcome was entered for the compound CC(=O)C1C(=O)C(C(C)=O)C2C3C=CC(C3)C12 (centres undefined) in this test?
**Result** FALSE

**Query** Which outcome was entered for the compound O=C1NNC2(C(=O)N1)c1ccccc1-c1ccccc12 in this test?
**Result** FALSE

**Query** Which outcome was entered for the compound O=[N+]([O-])C(C=C(n1nnc2ccccc21)n1nnc2ccccc21)=C(n1nnc2ccccc21)n1nnc2ccccc21 in this test?
**Result** FALSE

**Query** Which outcome was entered for the compound O=P1(c2ccccc2)c2ccccc2CCc2ccccc21 in this test?
**Result** FALSE

**Query** Which outcome was entered for the compound CCn1c2c(c3ccccc31)C(c1ccccc1)CC1C(=O)N(c3ccccc3)C(=O)C21 (centres undefined) in this test?
**Result** FALSE

**Query** Which outcome was entered for the compound CCn1c(SCC(=O)N/N=C2\SCC(=O)N2c2ccc(C)cc2)nc2ccccc2c1=O in this test?
**Result** FALSE

**Query** Which outcome was entered for the compound [N-]=[N+]=Nc1ccccc1C(=O)N1C(=O)c2ccccc2C(=O)N(C(=O)c2ccccc2N=[N+]=[N-])c2ccccc21 in this test?
**Result** FALSE

**Query** Which outcome was entered for the compound COc1cc(C2C3=C(COC3=O)Oc3cc4c(cc32)OCO4)ccc1OC(C)=O (centres undefined) in this test?
**Result** TRUE

**Query** Which outcome was entered for the compound C=CCC1NCCC2=C1C(S(=O)(=O)c1ccc(C)cc1)c1ccccc12 (centres undefined) in this test?
**Result** FALSE

**Query** Which outcome was entered for the compound Brc1ccc2[nH]cc(-c3nc(-c4c[nH]c5ccccc45)cs3)c2c1 in this test?
**Result** FALSE

**Query** Which outcome was entered for the compound CCOC(=O)c1c(NC(=S)NCc2ccccc2)sc2c1CCN(C)C2 in this test?
**Result** FALSE

* * *

Test system: CAKI-1
method.summary: NCI tumour cell line growth inhibition, 48 h
Calls of active or inactive are those of the source. Cut-off read from the data, not from the text of the source: active = GI50 up to about 1.1 µM and inactive = higher.
Output constraint: value belongs to yes (1) for active, no (0) for inactive

**Query** Which outcome was entered for the molecule CC(C)c1cc(C(C)C)c(Cl)c(Cl)c1O.CC(C)c1cc(Cl)c(O)c(C(C)C)c1Cl in this test?
**Result** no (0)

**Query** Which outcome was entered for the molecule C=C1C(=O)O[C@H]2[C@H](OC(C)=O)[C@@H](C)CCC/C(C)=C/CC[C@@]3(C)O[C@@H]3C[C@@H]12 in this test?
**Result** no (0)

**Query** Which outcome was entered for the molecule COc1cc(/N=N/c2cccc(S(N)(=O)=O)c2)c2ccccc2c1N in this test?
**Result** no (0)

**Query** Which outcome was entered for the molecule O=C(C[n+]1ccccc1)NNC(=O)/C(=C/c1ccc2c(c1)OCO2)NC(=O)c1ccccc1 in this test?
**Result** no (0)

**Query** Which outcome was entered for the molecule Cc1cc(C)nc(NC(=S)Nc2ccc([N+](=O)[O-])cc2)c1 in this test?
**Result** no (0)

**Query** Which outcome was entered for the molecule COC(=O)CCC(=O)Nc1cc(C)ccc1C in this test?
**Result** no (0)

**Query** Which outcome was entered for the molecule COC(=O)C[C@](O)(CCCC(C)(C)O)C(=O)O[C@@H]1C(OC)=C[C@]23CCCN2CCc2cc4c(cc2[C@H]13)OCO4 [OMACETAXINE MEPESUCCINATE] in this test?
**Result** yes (1)

**Query** Which outcome was entered for the molecule [N-]=[N+]=Nc1ccccc1-c1ccccc1[N+](=O)[O-] in this test?
**Result** no (0)

**Query** Which outcome was entered for the molecule CC1=COC2=C(C)C(=O)C(=O)c3c(C)ccc1c32 [MANSONONE F] in this test?
**Result** no (0)

**Query** Which outcome was entered for the molecule CCN(CC)CCNC(=O)c1cccc2cc3ccccc3nc12 in this test?
**Result** no (0)

**Query** Which outcome was entered for the molecule N#Cc1nnn(C2CCCCC2)c1O in this test?
**Result** no (0)

**Query** Which outcome was entered for the molecule O=C(c1ccc(F)cc1)c1cccc(C(=O)c2ccc(F)cc2)n1 in this test?
**Result** no (0)

**Query** Which outcome was entered for the molecule [N-]=[N+]=CC(=O)OC1Cc2ccccc2C1 in this test?
**Result** yes (1)

**Query** Which outcome was entered for the molecule NC(=O)C(=O)N/N=C1/c2ccccc2CC1C1(O)C(=O)Nc2c(Cl)cc(Cl)cc21 (stereo not given) in this test?
**Result** no (0)

**Query** Which outcome was entered for the molecule CC(=O)C1C(=O)C(C(C)=O)C2C3C=CC(C3)C12 (stereo not given) in this test?
**Result** no (0)

* * *

Test system: Hs-578T
method.summary: NCI tumour cell line growth inhibition, 48 h
The source made the active and inactive calls. Cut-off read from the data, not from the text of the source: active = GI50 up to about 1.1 µM and inactive = higher.
Output constraint: value belongs to yes (1) for active, no (0) for inactive

**Query** Which outcome was entered for the compound Cc1ccc(-c2nc3cc(Cl)ccc3[nH]2)cc1 in this test?
**Result** no (0)

**Query** Which outcome was entered for the compound COc1cc2c(cc1OC)-c1cc3cc(OC)c(OC)cc3c(C)[n+]1CC2.O=C([O-])CS(=O)(=O)O in this test?
**Result** no (0)

**Query** Which outcome was entered for the compound COC(=O)C1c2cc3c(cc2C(OC2OC(C)C(OC)C(C)(OC)C2OC)CC1(C)O)C(=O)c1c(O)cc2c(c1C3=O)OC1OC2(C)C(O)C([N+](C)(C)[O-])C1O (centres undefined) in this test?
**Result** yes (1)

**Query** Which outcome was entered for the compound COC(=O)C1=CO[C@@H](OC2OC(CO)C(O)C(O)C2O)[C@H]2[C@@H](C)[C@@H](O)[C@@H](O)[C@@H]12 (some centres undefined) in this test?
**Result** no (0)

* * *

So I've got a bunch of molecules here, and I need their GI50 values.
Tested on: SNB-75
method.summary: NCI tumour cell line growth inhibition, 48 h
Calls of active or inactive are those of the source. No stated cut-off is given here; in the data, active = GI50 up to about 1.1 µM and inactive = higher.

response.value for Nn1c(-c2ccccc2)nn(C(=O)c2ccccc2)c1=O (field: GI50) = > 100 µM (inactive)

response.value for CCC1(O)CC(c2ccccc2)N(C)C(c2ccccc2)C1 (configuration not stated) (field: GI50) = > 100 µM (inactive)

response.value for Cc1cc2c(=O)n(-c3ccc(F)cc3)c(C)nc2c(C(=O)O)c1C (field: GI50) = > 100 µM (inactive)

response.value for C1=C2C3=[N+](CCCC3)CC2Cc2ccsc21 (configuration not stated) (field: GI50) = 93.8 µM (inactive)

response.value for CCCCNC1=C(C(=O)OCC)/C(=N/NC(=O)c2ccccc2O)CO1 (field: GI50) = 1.73 µM (inactive)

response.value for CCOC(=O)c1cc2c(nc1N)-c1ncccc1CC2 (field: GI50) = > 100 µM (inactive)

response.value for CCC(C)C(C(=O)N/N=C1/SCC(=O)N1C)C(=O)N/N=C1/SCC(=O)N1C (configuration not stated) (field: GI50) = > 100 µM (inactive)
